Reference for the values: ChEMBL document CHEMBL3988442

TESTED ON: Aspartate--tRNA(Asp/Asn) ligase (Mycobacterium tuberculosis (strain ATCC 25618 / H37Rv)) (UniProt P9WFW3)
Sequence (P9WFW3 whole entry): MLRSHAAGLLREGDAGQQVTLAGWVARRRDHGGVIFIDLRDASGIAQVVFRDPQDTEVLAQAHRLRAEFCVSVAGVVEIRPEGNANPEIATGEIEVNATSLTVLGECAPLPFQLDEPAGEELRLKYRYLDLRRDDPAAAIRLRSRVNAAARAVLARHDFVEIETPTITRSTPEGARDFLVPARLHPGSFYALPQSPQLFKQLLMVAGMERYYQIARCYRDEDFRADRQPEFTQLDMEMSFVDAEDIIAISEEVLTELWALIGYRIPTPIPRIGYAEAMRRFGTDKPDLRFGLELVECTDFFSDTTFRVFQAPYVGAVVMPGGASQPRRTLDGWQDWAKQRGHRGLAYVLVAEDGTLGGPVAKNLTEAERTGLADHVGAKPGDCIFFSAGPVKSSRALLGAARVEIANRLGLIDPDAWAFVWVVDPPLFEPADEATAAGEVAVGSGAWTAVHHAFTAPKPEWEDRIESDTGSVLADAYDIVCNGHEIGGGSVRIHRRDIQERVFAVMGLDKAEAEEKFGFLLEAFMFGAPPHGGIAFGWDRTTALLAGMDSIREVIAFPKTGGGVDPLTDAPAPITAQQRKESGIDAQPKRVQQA
TEST NAME: Assay for Asp RNA synthetase-1 from Mycobacterium tuberculosis
Format: functional
Set-up: scale not given: in the data most compounds retested in dose-response had high values
EXPERIMENTAL CONDITIONS: 30 µM
In this section we review reported Percent Effect values for a set of compounds.
The reply should contain only the number, in %.

| COMPOUND | MEASUREMENT UNIT | Percent Effect |
| --- | --- | --- |
| Cc1nc(C)n(CC2CCCN2Cc2cn3c(C)cccc3n2)n1 (stereo unspecified) | % | -5.04 |
| N#CC(Sc1nnnn1C1CCOCC1)C1CCCCC1 (stereo unspecified) | % | -2.4 |
| CCC(O)CN1CCN(C(=O)Cc2cc(Cl)ccc2OC)CC1 (stereo unspecified) | % | -1.9 |
| c1ccc(-c2nc(CN3CCCC(Cn4cncn4)C3)co2)cc1 (stereo unspecified) | % | 0.247 |
| Cc1nc(NC(=O)CNC(=O)c2c(F)cccc2Cl)n[nH]1 | % | 6.53 |

# evaluate next
GET /values?readout=Percent Effect&item= CCc1nccn1-c1cncc(C2CCCN2Cc2cccnc2)n1 (stereo unspecified)
5.87
